assayedTarget: Neutrophil elastase (Homo sapiens, UniProt P08246)
Sequence (P08246 whole entry): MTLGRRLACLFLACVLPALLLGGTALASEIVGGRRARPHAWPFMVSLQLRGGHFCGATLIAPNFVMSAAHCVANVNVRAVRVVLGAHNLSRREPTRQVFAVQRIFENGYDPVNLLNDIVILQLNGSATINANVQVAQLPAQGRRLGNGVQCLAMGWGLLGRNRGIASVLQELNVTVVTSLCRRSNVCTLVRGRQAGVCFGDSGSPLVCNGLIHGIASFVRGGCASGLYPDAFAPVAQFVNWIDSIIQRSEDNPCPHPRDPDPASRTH
testProtocol: Inhibition of human neutrophil elastase using S1384 as substrate preincubated for 5 mins followed by substrate addition
This section presents compounds with their documented log10 IC50 values.
// stored as log10 of IC50 expressed in nM

Solved cases below.
compound	experimentalEndpoint	reading
O=c1c(OS(=O)(=O)O)c(-c2ccc(OS(=O)(=O)O)c(OS(=O)(=O)O)c2)oc2cc(OS(=O)(=O)O)cc(OCCOc3cc(-c4oc5cc(OS(=O)(=O)O)cc(OCCOc6cc(OS(=O)(=O)O)cc7oc(-c8ccc(OS(=O)(=O)O)c(OS(=O)(=O)O)c8)c(OS(=O)(=O)O)c(=O)c67)c5c(=O)c4OS(=O)(=O)O)ccc3OS(=O)(=O)O)c12	log10 IC50	2.15
O=c1cc(-c2ccc(OS(=O)(=O)[O-])cc2)oc2cc(OS(=O)(=O)[O-])cc(OCc3cccc(COc4cc(OS(=O)(=O)[O-])cc5oc(-c6ccc(OS(=O)(=O)[O-])cc6)cc(=O)c45)n3)c12.[Na+].[Na+].[Na+].[Na+]	log10 IC50	2.84
O=C(OC[C@H]1O[C@@H](OC(=O)c2cc(OS(=O)(=O)[O-])c(O)c(OS(=O)(=O)[O-])c2)[C@H](OC(=O)c2cc(OS(=O)(=O)[O-])c(O)c(OS(=O)(=O)[O-])c2)[C@@H](OC(=O)c2cc(OS(=O)(=O)[O-])c(O)c(OS(=O)(=O)[O-])c2)[C@@H]1OC(=O)c1cc(OS(=O)(=O)[O-])c(O)c(OS(=O)(=O)[O-])c1)c1cc(OS(=O)(=O)[O-])c(O)c(OS(=O)(=O)[O-])c1.[Na+].[Na+].[Na+].[Na+].[Na+].[Na+].[Na+].[Na+].[Na+].[Na+] [sulfated pentagalloylglucoside]	log10 IC50	1.60
O=c1c(OS(=O)(=O)O)c(-c2ccc(OS(=O)(=O)O)c(OS(=O)(=O)O)c2)oc2cc(OS(=O)(=O)O)cc(OCc3ccc(COc4cc(OS(=O)(=O)O)cc5oc(-c6ccc(OS(=O)(=O)O)c(OS(=O)(=O)O)c6)c(OS(=O)(=O)O)c(=O)c45)cc3)c12	log10 IC50	2.36

Continue with the next compound.
# compound `O=c1cc(-c2ccc(OS(=O)(=O)O)cc2)oc2cc(OS(=O)(=O)O)cc(OCc3cccc(COc4cc(OS(=O)(=O)O)cc5oc(-c6ccc(OS(=O)(=O)O)cc6)cc(=O)c45)c3)c12` ; its log10 IC50 = 5.20

----------
testProtocol: Solubility of the compound in water
Format: physicochemical
experimentalEndpoint: solubility

solubility for `O=c1cc(-c2ccc(OS(=O)(=O)[O-])cc2)oc2cc(OS(=O)(=O)[O-])cc(OCc3cccc(COc4cc(OS(=O)(=O)[O-])cc5oc(-c6ccc(OS(=O)(=O)[O-])cc6)cc(=O)c45)n3)c12.[Na+].[Na+].[Na+].[Na+]` is > 10000 µg/mL

Value source: ChEMBL document CHEMBL4304745
